# Tested on: 361931-004-R-J1-PDC multicell spheroid viability;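 further: spheroids exposed to agents for seven days before readout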
# PROTOCOL: Anticancer human tumor 361931-004-R-J1-PDC patient-derived colon adenocarcinoma cell line growth inhibition [PI3K]; active means viability on the fitted dose curve at most 10% of control; inactive means the rest
# MEASUREMENT CONDITIONS: second compound 1 µM; first compound 10 µM
Your reply should match one of these outcome classes. 1 (active), -1 (inactive)

Reference set (3 entries):
{"columns": ["COMPOUND", "LABEL CLASS"],
 "data": [
  ["CC(C)NCC(C(=O)N1CCN(c2ncnc3c2C(C)CC3O)CC1)c1ccc(Cl)cc1 (stereo unspecified) + Cc1nc(NC(=O)N2CCCC2C(N)=O)sc1-c1ccnc(C(C)(C)C(F)(F)F)c1", -1],
  ["C=CC(=O)N1CCN(c2nc(=O)n(-c3c(C)ccnc3C(C)C)c3nc(-c4c(O)cccc4F)c(F)cc23)C(C)C1 (stereo unspecified) + Cc1nc(NC(=O)N2CCCC2C(N)=O)sc1-c1ccnc(C(C)(C)C(F)(F)F)c1", -1],
  ["C#Cc1c(F)ccc2cc(O)cc(-c3ncc4c(N5CC6CCC(C5)N6)nc(OCC56CCCN5CC(F)C6)nc4c3F)c12 (stereo unspecified) + COc1c(OCCCN2CCOCC2)ccc2c3n(c(=NC(=O)c4cnc(N)nc4)nc12)CCN3", 1]
]}

What call does the record list for C[C@@H](NC(=O)c1ncnc(N)c1Cl)c1ncc(C(=O)Nc2cc(C(F)(F)F)c(Cl)cn2)s1 + CC(Nc1ccc2c(c1)OCCn1cc(N3C(=O)OCC3C(F)F)nc1-2)C(N)=O ?
-1

What call does the record list for C#Cc1c(F)ccc2cc(O)cc(-c3ncc4c(N5CC6CCC(C5)N6)nc(OCC56CCCN5CC(F)C6)nc4c3F)c12 (stereo unspecified) + CC(Nc1ccc2c(c1)OCCn1cc(N3C(=O)OCC3C(F)F)nc1-2)C(N)=O ?
-1

What call does the record list for C=CC(=O)N1CCN(c2nc(=O)n(-c3c(C)ccnc3C(C)C)c3nc(-c4c(O)cccc4F)c(F)cc23)C(C)C1 (stereo unspecified) + CC(Nc1ncnc2nc[nH]c12)c1cc2cccc(Cl)c2c(=O)n1-c1ccccc1 ?
-1
